src = patent US9828385B2

SYSTEM_TESTED: human V1a receptor (Homo sapiens, UniProt P37288)
Construct: expressed in transfected cells; host or cells: HEK293 cells, transiently transfected; cell membranes
Sequence (P37288 whole entry): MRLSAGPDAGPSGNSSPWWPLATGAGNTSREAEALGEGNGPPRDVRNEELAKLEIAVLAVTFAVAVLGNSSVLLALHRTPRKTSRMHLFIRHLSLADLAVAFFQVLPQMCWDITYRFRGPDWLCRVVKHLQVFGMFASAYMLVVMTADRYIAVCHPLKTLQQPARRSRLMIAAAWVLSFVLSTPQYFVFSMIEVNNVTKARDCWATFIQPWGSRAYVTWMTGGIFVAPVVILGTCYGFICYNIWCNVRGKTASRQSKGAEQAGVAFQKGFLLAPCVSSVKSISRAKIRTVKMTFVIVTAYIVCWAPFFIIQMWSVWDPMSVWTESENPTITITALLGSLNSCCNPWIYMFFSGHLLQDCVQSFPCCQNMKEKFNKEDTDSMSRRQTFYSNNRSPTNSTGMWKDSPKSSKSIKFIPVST
TEST_PROTOCOL: human V1a receptor binding studies (3H-Vasopressin, SPA beads)
CONDITION_DESCRIPTION: membranes of HEK293 cells transiently transfected with human V1a receptor, Ki by Cheng-Prussoff from IC50, read-out: pKi hV1a (converted)
ENDPOINT_NAME: Ki (nM)
One number for each entry, in nM.

Batch: Ki for all items listed.
1. O=C1N=C(N2CCC3(CC2)OCc2ccccc23)OC1C(O)c1ccc(Cl)cc1 (single isomer, unassigned; diastereomer b) [Example 44]
2. CC1=CCC2(C1)OC(N1CCC3(CC1)OCc1ccccc13)=NC2=O (centres unmarked) [Example 114]
3. CC1(CC2CCCO2)OC(N2CCC3(CC2)OCc2ccccc23)=NC1=O (centres unmarked) [Example 101]
4. O=C1N=C(N2CCC3(CC2)OCc2ccccc23)OC12CCC(F)(F)CC2 [Example 130]
5. O=C1N=C(N2CCC3(CC2)OCc2ccccc23)OC1C(O)c1ccc(Cl)cc1 (centres unmarked) [Example 40]
6. C=C(CC1(CC(=C)C(F)(F)F)OC(N2CCC3(CC2)OCc2ccccc23)=NC1=O)C(F)(F)F [Example 64]

Data returned:
126
12.6
200
6.31
3.98
12.6

Batch: Ki for all items listed.
1. O=C1OC2(CCN(C3=NC(=O)C(C(O)c4ccc(Cl)cc4)O3)CC2)c2ccccc21 (single isomer, unassigned) [Example 53]
2. O=C1N=C(N2CCC3(CC2)OCc2cccc(F)c23)OC1Cc1ccccc1 (centres unmarked) [Example 23]

Data returned:
1: 158; 2: 2.51

====

SYSTEM_TESTED: human V1a receptor (Homo sapiens)
Construct: expressed in transfected cells; host or cells: HEK293 cells, transiently transfected; cell membranes
TEST_PROTOCOL: human V1a receptor binding studies (3H-Vasopressin, SPA beads)
CONDITION_DESCRIPTION: membranes of HEK293 cells transiently transfected with human V1a receptor, Ki by Cheng-Prussoff from IC50, read-out: pKi hV1a (converted)
ENDPOINT_NAME: Ki (nM)
Numbers only, in nM.

Solved entries:
COMPOUND: CCCCCC1CCC2(CC1)OC(N1CCC3(CC1)OCc1ccccc13)=NC2=O (single isomer, unassigned; diastereomer a) [Example 128]
SYSTEM_TESTED: human V1a receptor (Homo sapiens)
Ki (nM): 20
--
COMPOUND: CC1(Cc2ccc(Cl)nc2)OC(N2CCC3(CC2)OCc2ccccc23)=NC1=O (single isomer, unassigned; (+)) [Example 84]
SYSTEM_TESTED: human V1a receptor (Homo sapiens)
Ki (nM): 501
--
COMPOUND: CCOC(=O)C1[C@H]2CC3(C[C@@H]12)OC(N1CCC2(CC1)OCc1ccccc12)=NC3=O (single isomer, unassigned; diastereomer a) [Example 148]
SYSTEM_TESTED: human V1a receptor (Homo sapiens)
Ki (nM): 1000
--
COMPOUND: CC(c1ccccc1)C1(C)OC(N2CCC3(CC2)OCc2ccccc23)=NC1=O (single isomer, unassigned; diastereomer a) [Example 108]
SYSTEM_TESTED: human V1a receptor (Homo sapiens)
Ki (nM): 12.6
--
COMPOUND: O=C1N=C(N2CCC3(CC2)OCc2ccccc23)OC12C[C@H]1COC[C@H]1C2 (stereo partly drawn) [Example 144]
SYSTEM_TESTED: human V1a receptor (Homo sapiens)
Ki (nM): 79.4

Note: attention shifts to another entry.
Data request: Which Ki is reported for this compound? O=C1N=C(N2CCC3(CC2)OCc2ccccc23)OC12CC=C(CO)C2 (stereo not drawn) [Example 119]
Data returned: 1000
